Source listed as PubChem BioAssay (NCI).

tested on: SNB-75 CNS; assay: NCI-60 one-dose screen, 48 h (100 = growth as untreated, 0 = no growth, -100 = all killed); details: 10 µM unless noted
This is part of a sample that, as a whole, favours compounds with a hit. Of some 83,000 tested, about 20% had one in any assay.
Measurement Type: growth (%)

> print(dat)
                                    compound      system  test.value
 1                     NNC(=S)N/N=C/c1ccccn1  SNB-75 CNS        59.6
 2  CCOC(=O)c1c(NC(=O)c2ccc(C(C)(C)C)cc2)sc2cc(O)ccc12  SNB-75 CNS         104
 3  CCC(C)Nc1ccc(NC(C)CC)cc1 (centres undefined)  SNB-75 CNS        83.2
 4  O=C(CSc1nc2ccc([N+](=O)[O-])cc2[nH]1)Nc1ccc(Br)cc1  SNB-75 CNS        61.6
 5  CCn1cc(CNc2ccc(C(=O)Nc3cc4cc(OC)c(OC)cc4c(C)n3)cc2)c(C)n1  SNB-75 CNS        77.1
 6  NC(=S)N/N=C/c1cn(-c2ccccc2)nc1-c1cc2ccccc2oc1=O  SNB-75 CNS        8.48
 7    O=C1C(Cl)=C(NCCN2CCOCC2)C(=O)c2ncccc21  SNB-75 CNS        88.3
 8  C=C(CN1CC=CCC1)[C@@H]1CC[C@]2(CO)CC[C@]3(C)[C@H](CC[C@@H]4[C@@]5(C)CC[C@H](O)C(C)(C)[C@@H]5CC[C@]43C)[C@@H]12  SNB-75 CNS         108
 9  COc1ccc2c(c1)c(-c1nonc1-c1c[nH]c3ccc(Br)cc13)cn2C  SNB-75 CNS        63.3
10  CCN1C(=O)N(CC)C2C1NN=c1s/c(=C\c3cc4ccccc4[nH]3)c(=O)n12 (centres undefined)  SNB-75 CNS        32.1
11  COc1cc(OC)cc(C2C(C#N)=C(N)Oc3c2ccc2ccc(O)cc32)c1 (centres undefined)  SNB-75 CNS          72
12  Cc1cc(C)cc(Nc2ccc([N+](=O)[O-])c(NCCN3CCOCC3)n2)c1  SNB-75 CNS        31.3
13  CC1O[C@@H]2C[C@@](O)([C@H]1O)n1c3ccccc3c3c4c(c5c6ccccc6n2c5c31)C(=O)NC4=O (some centres undefined)  SNB-75 CNS        44.8
14  COc1ccc(C(O)c2cc3c(N)c(C(=O)Nc4cccc(Cl)c4)sc3nc2C)cc1 (centres undefined)  SNB-75 CNS        31.2
15  CC1=CCC[C@@H]2C1(C)CC[C@H](C)[C@@]2(C)CC1=CC(=O)C(SC(C)(C)C)=CC1=O (some centres undefined)  SNB-75 CNS        77.4
16  Cc1c(N2CN3C[C@H](C)N4CN(c5c(C)n(C)n(-c6ccccc6)c5=O)CN5C[C@@H](C)N(C2)C3C54)c(=O)n(-c2ccccc2)n1C (some centres undefined)  SNB-75 CNS         107
17  CC(=O)c1cc(-c2ccccc2N)n(-c2ccc3c(c2)OCO3)c1C  SNB-75 CNS        22.8
18  O=C(/C=C/C12c3ccccc3C(c3ccccc31)C1C(=O)NC(=O)C12)c1ccccn1 (centres undefined)  SNB-75 CNS        26.5
19  COc1cc(/C=C/c2cc(/C=C/c3ccc(O)c(OC)c3)n(C(=O)Nc3ccc(F)cc3)n2)ccc1O  SNB-75 CNS        26.9
